Below are Ki measurements against Adenosine receptor A3 (Homo sapiens) drawn from the literature.
recordedMetric: Ki (nM)

CC(=O)Nc1ccc(-c2c(C#N)c(N)nc(SCC(N)=O)c2C#N)cc1 | 742
Cn1cc2c(nc(NC(=O)NC3CCN(Cc4ccncc4)CC3)n3nc(-c4ccco4)nc23)n1 | 39
Oc1c2nnnc-2nc2n1CCCS2 | 437

P: COc1ccc(-c2cc3cccc(C)c3oc2=O)cc1OC
Q: COc1ccccc1Cn1cc2nc(-c3ccco3)nc(N)c2n1
Task: Which shows the larger Ki value: P or Q ? // respond with label for picked entry
Result: P

1: O=C(Nc1ccccc1)c1[nH]c(=O)nc2ccccc12
2: Nc1nc(-c2ccc(NC(=O)CCNCCc3ccc(S(N)(=O)=O)cc3)cc2)cn2c(=O)n(-c3ccccc3)nc12
Task: Of 1 and 2 , which carries the smaller reported Ki figure? // respond with label for picked entry
Result: 1

A: OC[C@H]1O[C@@H](n2cnc3c(NCc4ccccc4)ncnc32)[C@H](O)[C@@H]1O
B: Cc1cccc2cc(-c3ccccc3)c(=O)oc12
Task: Of A and B , which carries the smaller reported Ki figure? // respond with label for picked entry
Result: A

I: CCOC(=O)c1nc(NC(=O)c2ccc(Cl)c(Cl)c2)nc2nn(CCc3ccccc3)cc12
II: CCn1ncc2c1nc(N)n1nc(-c3ccc(Cl)cc3)nc21
Task: Which shows the larger Ki value: I or II ? // respond with label for picked entry
Result: I
(I: 2200 nM, II: 565 nM)

* * *

pKi: −log10 of the molar value.
Below are pKi measurements against Adenosine receptor A3 (Homo sapiens) drawn from the literature.
recordedMetric: pKi

COc1cc(-c2cc(NC(C)=O)nc(-c3cc(OC)c(OC)c(OC)c3)n2)cc(OC)c1OC | 7.58

P: COc1ccc(-n2nc3c(NC(C)=O)nc4ncccc4n3c2=O)cc1
Q: O=C(Nc1nc(-c2ccccc2)nc2cn(-c3ccccc3)nc12)c1ccncc1
Task: Which shows the larger pKi value: P or Q ? // respond with label for picked entry
Result: Q

A: CCn1cc2c(nc(N)n3nc(-c4ccc(Cl)cc4)nc23)n1
B: O=C(Nc1ccccc1)Nc1nc(Oc2ccccc2)nc2nc(-c3ccco3)nn12
C: Cn1cc2nc(N)n3nc(-c4ccco4)nc3c2n1
Task: Would you mind ranking these compounds by ascending pKi? Form field (ranking): labels in requested order.
Result: B, C, A

A: O=c1[nH]c2ccc(Cl)cc2n2nc(-c3ccsc3)nc12
B: CC(=O)Nc1nc2sc(C)c(C)c2c(=O)[nH]1
Task: Which shows the larger pKi value: A or B ? // respond with label for picked entry
Result: A
(A: 6.90, B: 6.28)

* * *

Below are pKi measurements against Adenosine receptor A3 (Homo sapiens, UniProt P0DMS8) drawn from the literature.
pKi: −log10 of the molar value.
recordedMetric: pKi

O=C(Nc1nc(-c2ccccc2)cn2cc(-c3ccccc3)nc12)c1cccnc1 | 7.27
CCn1cc2c(nc(N)n3nc(-c4ccco4)nc23)n1 | 5.42
CNC(=O)[C@H]1O[C@@H](n2cnc3c(NCc4cccc(I)c4)nc(Cl)nc32)[C@H](OC(C)=O)[C@@H]1OC(C)=O | 6.04
NC(=O)c1nc(N)nc2nn(CCc3ccccc3)cc12 | 4.48

A: CCCOC(=O)c1c(-c2ccccc2)nc(CC)c(C(=O)SCC(F)(F)F)c1CCC
B: O=C(Cc1ccc(-c2ccccc2)cc1)Nc1nc2nn(CCc3ccccc3)cc2c2nc(-c3ccco3)nn12
C: CN1CCN(c2nc3nn(C)cc3c3nc(-c4ccco4)nn23)CC1
D: CCCCC(Nc1nc2nn(C)cc2c2nc(-c3ccco3)nn12)C(=O)OCC (racemic)
E: COC(=O)c1cnn(-c2nc(NC(C3CC3)C3CC3)c3ncn([C@H]4[C@H](O)[C@H](O)[C@@H]5C[C@@H]54)c3n2)c1
Task: Would you mind ranking these compounds by ascending pKi? Form field (ranking): labels in requested order.
Result: C, E, B, A, D

* * *

Below are Ki measurements against Adenosine receptor A3 (Homo sapiens, UniProt P0DMS8) drawn from the literature.
recordedMetric: Ki (nM)

Previously resolved entries follow.
CN(C)c1ncnc2sc(Nc3ccccc3)nc12 | 1280
c1ccc(-c2nc(-c3ccccc3)c3[nH]cnc3n2)cc1 | 38
CCCn1c(=O)c2c(nc3n2CCCN3CCc2ccccc2)n(CCC)c1=O | 3660

A: CCOC(=O)Cc1ccc(NC(=O)Nc2nc3nn(CCC(C)C)cc3c3nc(-c4ccco4)nn23)cc1
B: C=CCn1c(Br)nc2c(N)ncnc21
C: Cc1cc(Br)cc(-c2nc(NC(=O)c3cccnc3)sc2-c2ccncc2)c1
D: CCOC(=O)c1c(NC(=O)c2sc(Nc3ccc(C)cc3)nc2-c2ccc(C)cc2)sc2c1CCCC2
Task: Thanks in advance: please rank these 4 entries by Ki, highest to lowest. Form field (ranking): labels in requested order.
Result: B, D, A, C
(B: 20000 nM, D: 2160 nM, A: 11.9 nM, C: 6.34 nM)

1: COc1cc(-c2nc3c([nH]2)C2=N[C@@H](C)CN2C(=O)N3Cc2ccccc2)n(C)n1
2: CNC(=O)[C@H]1O[C@@H](n2cnc3c(NCc4cc(Cl)cc(Cl)c4)ncnc32)[C@H](O)[C@@H]1N
Task: Which shows the larger Ki value: 1 or 2 ? // respond with label for picked entry
Result: 2
(2: 25 nM, 1: 2.52 nM)

P: C[C@@H](Oc1ccccc1)C(=O)Nc1nc(-c2ccccc2)n[nH]1
Q: CCOC(=O)c1c(-c2ccccc2)nc(CC)c2c1CCCNC2=O
R: CNc1ncnc2c1ncn2[C@@H]1O[C@H](CO)[C@@H](O)[C@H]1O
S: CC(C)(C)Cn1cc2c(Cl)nc(N(C(=O)c3ccccc3)C(=O)c3ccccc3)nc2n1
Task: Would you mind ranking these compounds by ascending Ki? Form field (ranking): labels in requested order.
Result: R, Q, P, S
(R: 9.3 nM, Q: 1990 nM, P: 3300 nM, S: 6500 nM)

* * *

Below are Ki measurements against Adenosine receptor A3 (Homo sapiens, UniProt P0DMS8) drawn from the literature.
# measuredOn: Adenosine receptor A3 (Homo sapiens, UniProt P0DMS8)
# Sequence (P0DMS8 whole entry): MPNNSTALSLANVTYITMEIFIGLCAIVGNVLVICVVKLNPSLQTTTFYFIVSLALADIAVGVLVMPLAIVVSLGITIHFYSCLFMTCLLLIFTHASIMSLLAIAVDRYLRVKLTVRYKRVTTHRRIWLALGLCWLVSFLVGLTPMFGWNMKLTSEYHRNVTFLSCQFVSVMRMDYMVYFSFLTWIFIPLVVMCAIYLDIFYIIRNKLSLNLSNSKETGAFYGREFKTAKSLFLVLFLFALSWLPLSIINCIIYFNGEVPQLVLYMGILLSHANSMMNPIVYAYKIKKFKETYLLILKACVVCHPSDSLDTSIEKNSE
recordedMetric: Ki (µM)

A: CCCc1nc2nc(-c3ccccc3)nc(-c3ccccc3)c2[nH]1
B: CC(C)CCn1cc2c(nc(NC(=O)CCCN)n3nc(-c4ccco4)nc23)n1
C: C[C@@H](Nc1nc2nn(C)cc2c2nc(-c3ccco3)nn12)c1ccccc1
Task: In ascending order of recorded Ki, list the compounds from the set above. Form field (ranking): labels in requested order.
Result: C, A, B
(C: 0.00371 µM, A: 0.017 µM, B: 0.09 µM)

* * *

Below are pKi measurements against Adenosine receptor A3 (Homo sapiens, UniProt P0DMS8) drawn from the literature.
pKi: −log10 of the molar value.
recordedMetric: pKi

c1ccc(Nc2nc3c(N4CCCC4)ncnc3s2)cc1 | 5.06
COc1cc(-c2nc3c([nH]2)C2=NC(C)CN2C(=O)N3Cc2ccccc2)on1 (racemic) | 8.57
O=c1oc2c(O)c(O)ccc2cc1-c1cccs1 | 5.32

1: COc1ccccc1-n1cc2nc(-c3cccs3)nc(N)c2n1
2: Cc1ccc(-c2nc(N)c3nn(Cc4ccccc4)cc3n2)o1
Task: Of 1 and 2 , which carries the smaller reported pKi figure? // respond with label for picked entry
Result: 2
(2: 6.57, 1: 6.82)

P: O=C([C@H]1O[C@@H](n2cnc3c(NC4CC4)nc(Cl)nc32)[C@H](O)[C@@H]1O)N1CCOCC1
Q: COc1ccccc1-c1cc(NC(C)=O)nc(-c2ccccc2OC)c1
R: CNC(=O)[C@H]1O[C@@H](n2cnc3c(NCc4cc(Cl)ccc4OCC(N)=O)ncnc32)[C@H](O)[C@@H]1N
Task: Thanks in advance: please rank these 3 entries by pKi, highest to lowest. Form field (ranking): labels in requested order.
Result: R, Q, P
(R: 8.17, Q: 6.11, P: 5.35)

I: COc1cccc(Cn2cc3nc(-c4ccc(C)o4)nc(N)c3n2)c1
II: CNC(=O)[C@@]12C[C@@H]1[C@@H](n1cnc3c(NCCc4ccccc4)nc(C#Cc4ccc(Cl)s4)nc31)[C@H](O)[C@@H]2O
Task: Of I and II , which carries the smaller reported pKi figure? // respond with label for picked entry
Result: I
(I: 7.06, II: 8.47)
